[θ]222/[θ]208 Benign for assorted substances
# experiment: Circular dichroism spectra
# Assay type: physicochemical
# assay.setup: ratio of mean residue ellipticity at 222 nm and 208 nm, benign buffer (100mM KCl, 50mM PO4, pH 7), 5°C
Provide only the numeric value, understood in deg cm^2 dmol^-1.

Examples with answers:
- substance: "TM2: TM85-119 analog with K118A substitution (VASLNRRIQLVEEELDRAQERLATALQKLEEAEAA; not fully specified; Cys-Gly-Gly linker; UniProt P09493 85-119, looked up, variant K118A)"
  number: 1.08
- substance: "TM3: TM85-119 analog with K112A/K118A substitutions (VASLNRRIQLVEEELDRAQERLATALQALEEAEAA; not fully specified; Cys-Gly-Gly linker; UniProt P09493 85-119, looked up, variant K112A K118A)"
  number: 1.08
- substance: "TM7: TM85-119 analog with R101A/L110A/K112A/K118A substitutions (VASLNRRIQLVEEELDAAQERLATAAQALEEAEAA; not fully specified; Cys-Gly-Gly linker; UniProt P09493 85-119, looked up, variant R101A L110A K112A K118A)"
  number: 0.86
- substance: "TM4: TM85-119 analog with R101A substitution (VASLNRRIQLVEEELDAAQERLATALQKLEEAEKA; not fully specified; Cys-Gly-Gly linker; UniProt P09493 85-119, looked up, variant R101A)"
  number: 1.08

Okay, now this substance:
Bench note: what [θ]222/[θ]208 Benign did Native: native tropomyosin 85-119 coiled-coil sequence with N-terminal Cys-Gly-Gly linker, N-acetylated, C-amidated, disulfide-bridged (Ac-CGGVASLNRRIQLVEEELDRAQERLATALQKLEEAEKA-NH2; also: disulfide-bridged two-stranded dimer (linker Cys); UniProt P09493 85-119, looked up, fragment) show? 1.08
